# mean % inhibition of serum antibody binding listing for each entry below
experimental-target: T1, PF4/heparin complex (human PF4 complexed with heparin) (human, UniProt P02776 32-101)
T1 construct: Multimeric complex of PF4 with heparin (not a protein); In the EIAs: PF4 captured on biotinylated heparin on streptavidin plates; In the SRA: platelets with 0.2 U/mL heparin; also called PF4 and heparin complexes
T1 sequence: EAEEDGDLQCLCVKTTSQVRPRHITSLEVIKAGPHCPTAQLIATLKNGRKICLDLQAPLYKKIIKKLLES
assay-info: competition EIA, scFv 50 µg/mL; competitor HIT-negative sera antibodies, n=10
Lab book: enter the figure in %, no units written.

- binder: "Mutant F scFv, scFv(E183V, E186K, G223R) (scFv, VL-linker-VH; histidine-tagged, from E. coli BL21; also called Mut F; not shown: histidine tag from the pADL-22c vector) scFv: DIQMIQSQKFMSTSVGDRVTVTCKASQNVGTNVAWYQQKPGQSPNALIYSASYRYSGVPDRFTGSGSGTDFTLTITNVQSEDLADYFCQQYNSYPLTFGTGTKLDLKGGGGSGGGGSGGGGSVQLQQSGAELVKPGASVKLSCKASGYTFTNYFIYWVKQRPGQGLEWIGEINPRNGDTDFNVKFKSRATLTVDKSSSTAYMQLSSLTSEDSAIYYCTRSPYRNNYGFTYWGQGTLVTVSA"
  value-reported: -57
- binder: "Mutant C scFv, scFv(S50N, Y53H) (scFv, VL-linker-VH; histidine-tagged, from E. coli BL21; also called Mut C; not shown: histidine tag from the pADL-22c vector) scFv: DIQMIQSQKFMSTSVGDRVTVTCKASQNVGTNVAWYQQKPGQSPNALIYNASHRYSGVPDRFTGSGSGTDFTLTITNVQSEDLADYFCQQYNSYPLTFGTGTKLDLKGGGGSGGGGSGGGGSVQLQQSGAELVKPGASVKLSCKASGYTFTNYFIYWVKQRPGQGLEWIGEINPRNGDTDFNEKFESRATLTVDKSSSTAYMQLSSLTSEDSAIYYCTRSPYGNNYGFTYWGQGTLVTVSA"
  value-reported: -42.5

Then there is this binder:
Return the recorded mean % inhibition of serum antibody binding value; entry: Mutant B scFv, scFv(R18K, N152K, D180N) (scFv, VL-linker-VH; histidine-tagged, from E. coli BL21; also called Mut B; not shown: histidine tag from the pADL-22c vector) scFv: DIQMIQSQKFMSTSVGDKVTVTCKASQNVGTNVAWYQQKPGQSPNALIYSASYRYSGVPDRFTGSGSGTDFTLTITNVQSEDLADYFCQQYNSYPLTFGTGTKLDLKGGGGSGGGGSGGGGSVQLQQSGAELVKPGASVKLSCKASGYTFTKYFIYWVKQRPGQGLEWIGEINPRNGDTNFNEKFESRATLTVDKSSSTAYMQLSSLTSEDSAIYYCTRSPYGNNYGFTYWGQGTLVTVSA
-31.4
